tested on: RARa homodimer (NR concentration 270 nM); assay: PBM binding z-score (relative to random genomic background probes); higher = stronger binding; sequences stand for … in GC…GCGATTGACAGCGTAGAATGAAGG
EXPERIMENTAL_READOUT: PBM binding z-score

ATCTCTAGGTAAGACTCAGTTCAGAGAAGAACGC : 0.962
GCTAGTTGGTCAGTAAAAGGCCACACACCGGTCG : -0.305
GCTTGTAGATCAAGGTTAACAAAGACTAAGCTAA : -0.205

// each sequence listed below needs its PBM binding z-score
1. GCAGACAGGTGAACCGCAGGTAACTCAGGGTGGC
2. AATACAGGCTCATCGTAGGCCAGAGTACGCACAG
3. TGGCCTAGGTCAGATCGGGCCAGTATACGCTATA
4. GGAACGAGGGCAAAGTTGGTAGCATCTGTCGACG

*A*
-0.768
0.466
-1.18
-0.548

// each sequence listed below needs its PBM binding z-score
1. CCTTACGCGTCAAGGTTATAGCACGGGTGGTACG
2. GCTGCAAGGTCAGGTTGGTCAGCTAACGGGTACG
3. CGTCCAAGGTCATAGGAGGTCAGGGAAGACAGAT
4. TCGAGTAGGTTAGTCGGGGCACTCAGCCAACATA

*A*
0.124
0.176
2.46
-0.581

Reported PBM binding z-score (RARa homodimer (NR concentration 270 nM)) for entry TCGAGTAGGTTAGTCGGGGTATTCAGCCAACATA is -0.0281
